Attribute: Emax
Target: UniProt P14416
Assay: cell-based
Conditions: HEK293, read-out: GoA Activation Emax

compound: CN(CCCCNC(=O)c1nc2ccccc2s1)[C@@H]1Cc2cccc3[nH]c(=O)n(c23)C1
unit: %
Emax: 75.5

compound: CN(CCCCNC(=O)c1ccc2scnc2c1)[C@@H]1Cc2cccc3[nH]c(=O)n(c23)C1
unit: %
Emax: 92.1

compound: CN(C[C@@H]1C[C@H]1CCNC(=O)c1cc2ccccc2[nH]1)[C@@H]1Cc2cccc3[nH]c(=O)n(c23)C1
unit: %
Emax: 74

compound: CC1Cc2ccccc2N1C(=O)c1nc2ccccc2s1 (centres unmarked) [Compound 2, reference compound]
unit: %
Emax: 31.9

compound: CN(CC[C@@H]1C[C@H]1CNC(=O)c1cc2ccccc2[nH]1)[C@@H]1Cc2cccc3[nH]c(=O)n(c23)C1
unit: %
Emax: 80.3

---

Molecular target: hD2R (D2SR), cAMP inhibition (Homo sapiens)
Sequence (P14416 1-414 isoform P14416-2): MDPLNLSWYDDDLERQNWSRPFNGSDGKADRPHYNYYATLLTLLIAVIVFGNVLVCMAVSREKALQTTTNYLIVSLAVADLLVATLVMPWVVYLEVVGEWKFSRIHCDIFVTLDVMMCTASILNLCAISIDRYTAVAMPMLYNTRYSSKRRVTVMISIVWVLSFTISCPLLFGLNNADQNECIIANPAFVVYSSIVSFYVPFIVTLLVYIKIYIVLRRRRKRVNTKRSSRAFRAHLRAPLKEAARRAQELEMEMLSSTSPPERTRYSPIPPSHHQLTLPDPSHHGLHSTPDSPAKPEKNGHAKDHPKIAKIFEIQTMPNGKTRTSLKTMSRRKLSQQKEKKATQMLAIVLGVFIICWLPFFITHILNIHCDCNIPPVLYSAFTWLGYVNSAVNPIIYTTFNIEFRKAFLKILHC
Assay: cell-based
Conditions: cAMP Inhibition EC50, 30 min; hD2R in HEK293 cells
pEC50: −log10 of the molar value.
parameter_measured: pEC50

compound: CN(CCCCNC(=O)c1ccc2scnc2c1)[C@@H]1Cc2cccc3[nH]c(=O)n(c23)C1
recorded_result: 8.28
//
compound: CC1Cc2ccccc2N1C(=O)c1nc2ccccc2s1 (centres unmarked) [Compound 2, reference compound]
recorded_result: 7.64
//
compound: CN(CC[C@@H]1C[C@H]1CNC(=O)c1cc2ccccc2[nH]1)[C@@H]1Cc2cccc3[nH]c(=O)n(c23)C1
recorded_result: 7.09
//
compound: CN(CCCCNC(=O)c1nc2ccccc2s1)[C@@H]1Cc2cccc3[nH]c(=O)n(c23)C1
recorded_result: 7.10
//
compound: CN(C[C@@H]1C[C@H]1CCNC(=O)c1cc2ccccc2[nH]1)[C@@H]1Cc2cccc3[nH]c(=O)n(c23)C1
recorded_result: 8.22

---

Below, each entry is listed alongside its reported Emax.
Biological target: UniProt P14416
Experiment: cell-based
Format: cell-based
Conditions: HEK293, read-out: βArrestin2 Recruitment Emax
parameter_measured: Emax (%)

compound_smiles: CN(CCCCNC(=O)c1ccc2scnc2c1)[C@@H]1Cc2cccc3[nH]c(=O)n(c23)C1
recorded_result: 76.4
--
compound_smiles: CN(C[C@@H]1C[C@H]1CCNC(=O)c1cc2ccccc2[nH]1)[C@@H]1Cc2cccc3[nH]c(=O)n(c23)C1
recorded_result: 30.5
--
compound_smiles: CN(CC[C@@H]1C[C@H]1CNC(=O)c1cc2ccccc2[nH]1)[C@@H]1Cc2cccc3[nH]c(=O)n(c23)C1
recorded_result: 26
--
compound_smiles: CN(CCCCNC(=O)c1nc2ccccc2s1)[C@@H]1Cc2cccc3[nH]c(=O)n(c23)C1
recorded_result: 64.2

---

Molecular target: hD2R (D2SR), GoA activation (Homo sapiens, UniProt P14416)
Sequence (P14416 1-414 isoform P14416-2): as above
Sequence (P09471 2-354 partner limits assumed): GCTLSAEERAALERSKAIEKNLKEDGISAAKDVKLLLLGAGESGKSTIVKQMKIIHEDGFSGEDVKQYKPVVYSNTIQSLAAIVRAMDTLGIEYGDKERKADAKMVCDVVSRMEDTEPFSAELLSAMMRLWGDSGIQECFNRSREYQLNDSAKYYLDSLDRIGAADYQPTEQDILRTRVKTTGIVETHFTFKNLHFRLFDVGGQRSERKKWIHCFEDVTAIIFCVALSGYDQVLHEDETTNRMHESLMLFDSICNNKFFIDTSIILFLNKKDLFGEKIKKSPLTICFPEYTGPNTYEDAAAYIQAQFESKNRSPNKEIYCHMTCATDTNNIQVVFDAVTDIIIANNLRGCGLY
Sequence (P62873 2-340 partner limits assumed): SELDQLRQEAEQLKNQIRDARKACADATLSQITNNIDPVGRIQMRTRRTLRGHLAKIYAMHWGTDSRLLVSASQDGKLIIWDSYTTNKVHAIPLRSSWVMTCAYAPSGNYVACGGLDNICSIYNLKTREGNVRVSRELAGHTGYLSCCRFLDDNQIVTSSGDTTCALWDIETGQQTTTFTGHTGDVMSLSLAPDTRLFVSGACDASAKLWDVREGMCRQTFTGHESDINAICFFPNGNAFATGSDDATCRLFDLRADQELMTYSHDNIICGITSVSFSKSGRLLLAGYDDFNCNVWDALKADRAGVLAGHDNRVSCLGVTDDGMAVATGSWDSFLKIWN
Sequence (P59768 2-68 partner limits assumed): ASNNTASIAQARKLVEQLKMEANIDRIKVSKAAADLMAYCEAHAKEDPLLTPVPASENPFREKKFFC
Assay: cell-based
Details: GoA Activation EC50, 30 min; hD2R in HEK293 cells
parameter_measured: log10(EC50) (log10 of the value in nM)

compound: CC1Cc2ccccc2N1C(=O)c1nc2ccccc2s1 (centres unmarked) [Compound 2, reference compound]
recorded_result: 1.79

compound: CN(CC[C@@H]1C[C@H]1CNC(=O)c1cc2ccccc2[nH]1)[C@@H]1Cc2cccc3[nH]c(=O)n(c23)C1
recorded_result: 2.01

compound: CN(C[C@@H]1C[C@H]1CCNC(=O)c1cc2ccccc2[nH]1)[C@@H]1Cc2cccc3[nH]c(=O)n(c23)C1
recorded_result: 0.00

compound: CN(CCCCNC(=O)c1nc2ccccc2s1)[C@@H]1Cc2cccc3[nH]c(=O)n(c23)C1
recorded_result: 2.07

compound: CN(CCCCNC(=O)c1ccc2scnc2c1)[C@@H]1Cc2cccc3[nH]c(=O)n(c23)C1
recorded_result: 0.86
